Assign protein stability index to each entry below.
B1: CDC14A (parent)
chain: LWVQGDIFRSKLKNRPSSEGSINK

Variants of: B1
ASSAY_PROCEDURE: protein stability index of a GFP-peptide fusion (GPS, HEK-293T) (PSI 1-6); higher = more stable;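 note: lentivirally expressed fusions sorted by FACS into six bins by GFP to DsRed ratio, PSI derived from sequencing read proportions per bin multiplied by bin number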
STATED_CONDITIONS: c terminus: a fixed tail appended
Give only the figure.

Record summary for F8Q : reported protein stability index = 3.78

Record summary for I22V : reported protein stability index = 2.81

Record summary for V3S : reported protein stability index = 3.06

Record summary for K13I : reported protein stability index = 2.15

Record summary for D6Q : reported protein stability index = 1.99

Record summary for I22K : reported protein stability index = 2.06

Record summary for I22E : reported protein stability index = 2.97

Record summary for I7Y : reported protein stability index = 2.66

Record summary for N23Y : reported protein stability index = 1.91

Record summary for D6V : reported protein stability index = 1.43

Record summary for R9C : reported protein stability index = 2.22

Record summary for P16E : reported protein stability index = 3.38

Record summary for S21K : reported protein stability index = 2.42

Record summary for L1C : reported protein stability index = 3.69

Record summary for I22F : reported protein stability index = 2.51

Record summary for R15P : reported protein stability index = 2.81

Record summary for R15N : reported protein stability index = 2.57

Record summary for Q4T : reported protein stability index = 2.41

Record summary for E19H : reported protein stability index = 2.36

Record summary for K11Y : reported protein stability index = 1.93

Record summary for L1K : reported protein stability index = 3.49

Record summary for S18E : reported protein stability index = 3.11
